Molecular target: T1, Human ST2 (human, UniProt Q01638 19-328, limits assumed)
T1 construct: also called human ST2 protein; Interleukin 1 receptor-like 1
T1 sequence (looked up): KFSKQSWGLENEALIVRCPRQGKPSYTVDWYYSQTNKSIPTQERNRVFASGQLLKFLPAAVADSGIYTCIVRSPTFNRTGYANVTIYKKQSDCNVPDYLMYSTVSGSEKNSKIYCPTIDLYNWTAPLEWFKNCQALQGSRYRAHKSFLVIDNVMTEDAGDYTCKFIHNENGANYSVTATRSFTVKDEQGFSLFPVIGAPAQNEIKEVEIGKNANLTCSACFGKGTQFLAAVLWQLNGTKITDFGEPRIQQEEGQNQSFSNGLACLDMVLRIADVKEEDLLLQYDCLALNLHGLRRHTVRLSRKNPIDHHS
Experiment: SPR (Carterra), antibody immobilized, ST2 analyte, 1:1
measurement_kind: Kd (nM)
State the answer as a number, implicitly in nM.

>>> observed_result("Human ST2 IgG1 Antibody 104 (antibody, V domains shown, IgG1, kappa) VH: QVQLVQSGAEVKKPGSSVKVSCKASGYTFTNYAIIWVRQAPGQGLEWMGGIIPVFGTADYTQTFQGRVTITADESTSTAYMELSSLRSEDTAVYYCARVSTNYYDSSGYYAFDYWGQGTLVTVSS VL: DIQMTQSPSSLSASVGDRVTITCRASQSISSYLNWYQQKPGKAPKLLIYDASSLQSGVPSRFSGSGSGTDFTLTISSLQPEDFATYYCQQTYHTPWTFGQGTKVEIKR")
121

Ask: Identify Kd associated with the binder Human ST2 IgG1 Antibody 105 (antibody, V domains shown, IgG1, kappa) VH: EVQLLESGGGLVQPGGSLRLSCAASGFTFSSYAMHWVRQAPGKGLEWVAVMSYDGRHEYYADSVKGRFTISRDNSKNTLYLQMNSLRAEDTAVYYCASTDYDIGGYSLPLDYWGQGTLVTVSS VL: DIQMTQSPSSLSASVGDRVTITCRASQSVSSWLAWYQQKPGKAPKLLIYAASNLQSGVPSRFSGSGSGTDFTLTISSLQPEDFATYYCQQSYDVPWTFGQGTRLEIKR
Result: 256
